# test.target: human PHD2184-418 (Homo sapiens (Human))
# Sequence (Q9GZT9 184-418): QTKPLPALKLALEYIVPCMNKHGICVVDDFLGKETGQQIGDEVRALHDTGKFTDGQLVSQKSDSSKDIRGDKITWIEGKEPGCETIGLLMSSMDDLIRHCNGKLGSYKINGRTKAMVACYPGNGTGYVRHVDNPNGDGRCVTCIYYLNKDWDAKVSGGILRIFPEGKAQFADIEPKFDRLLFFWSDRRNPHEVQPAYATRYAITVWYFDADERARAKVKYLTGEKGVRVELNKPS
# protocol.details: PHD2 inhibitory test (fluorescence polarization)
# Format: binding
# measurement.conditions: human PHD2184-418, FITC-labeled HIF-1α556-574 substrate, 2 μM 2-oxoglutarate, 37° C. 60 minutes
property.measured: IC50 (µM)

compound	property.measured	test.value
O=C(O)c1cnn(-c2nc3ncn(Cc4ccc(O)cc4)c3c(=O)[nH]2)c1	IC50	0.64
O=C(O)c1ccc(Cn2cnc3nc(-n4cc(C(=O)O)cn4)[nH]c(=O)c32)cc1	IC50	0.61
Cl.O=C(O)c1cnn(-c2nc3ncn(Cc4ccc(OCCN5CCOCC5)cc4)c3c(=O)[nH]2)c1 [Example 75, hydrochloride]	IC50	0.42

a: COc1ccc(Cn2cnc3c(=O)[nH]c(-n4cc(C(=O)O)cn4)nc32)cc1
b: O=C(O)c1cnn(-c2nc3c(ncn3Cc3ccc(O)cc3)c(=O)[nH]2)c1
(Q) So which one has the bigger IC50 here, a or b ? Answer by stating the label of the chosen item.
(A) a

----------
# protocol.details: Rat PK study: concentration of compounds in large intestine tissue and plasma
# Type: in vivo
# measurement.conditions: male, plasma, 3 mg/kg oral, non-fasted SD rats, 8 hours, read-out: Plasma: plasma test compound concentration after 8 hours
property.measured: concentration at 8 h (ng/mL)

compound	concentration at 8 h (ng/mL)
O=C(O)c1ccc(Cn2cnc3nc(-n4cc(C(=O)O)cn4)[nH]c(=O)c32)cc1 [Example 12]	2
Cl.O=C(O)c1cnn(-c2nc3ncn(Cc4ccc(OCCN5CCOCC5)cc4)c3c(=O)[nH]2)c1 [Example 75, hydrochloride]	1

A: CS(=O)(=O)c1ccc(Cn2cnc3nc(-n4cc(C(=O)O)cn4)[nH]c(=O)c32)cc1 [Example 4]
B: O=C(O)c1cnn(-c2nc3ncn(Cc4ccc(-c5ccccc5)cc4)c3c(=O)[nH]2)c1 [Example 1]
(Q) Return label of the item with the larger concentration at 8 h. Candidates: A , B . Mark your selection by writing its label.
(A) B
(B: 3 ng/mL, A: 2 ng/mL)

----------
# protocol.details: Rat PK study: concentration of compounds in large intestine tissue and plasma
# Assay type: in vivo
# measurement.conditions: male, large intestine tissue (distal, colon), 3 mg/kg oral, non-fasted SD rats, 8 hours, read-out: Colon: concentration in large intestine tissue after 8 hours
property.measured: concentration at 8 h (ng/g)

Reference set, count: 2
molecule	concentration at 8 h [ng/g]
O=C(O)c1cnn(-c2nc3ncn(Cc4ccc(O)cc4)c3c(=O)[nH]2)c1 [Example 3]	87
CS(=O)(=O)c1ccc(Cn2cnc3nc(-n4cc(C(=O)O)cn4)[nH]c(=O)c32)cc1 [Example 4]	94

P: O=C(O)c1cnn(-c2nc3ncn(Cc4ccc(-c5ccccc5)cc4)c3c(=O)[nH]2)c1 [Example 1]
Q: O=C(O)c1cnn(-c2nc3ncn(COCc4ccccc4)c3c(=O)[nH]2)c1 [Example 2]
(Q) I would appreciate it if you could say which entry, P or Q , has the lower concentration at 8 h value. Mark your selection by writing its label.
(A) P
(P: 109 ng/g, Q: 188 ng/g)

----------
# protocol.details: Rat PK study: concentration of compounds in large intestine tissue and plasma
# Type: in vivo
# measurement.conditions: male, plasma, 3 mg/kg oral, non-fasted SD rats, read-out: Cmax: maximum plasma concentration
property.measured: Cmax (ng/mL)

O=C(O)c1cnn(-c2nc3ncn(Cc4ccc(-c5ccccc5)cc4)c3c(=O)[nH]2)c1 11

a: Cl.O=C(O)c1cnn(-c2nc3ncn(Cc4ccc(OCCN5CCOCC5)cc4)c3c(=O)[nH]2)c1
b: O=C(O)c1ccc(Cn2cnc3nc(-n4cc(C(=O)O)cn4)[nH]c(=O)c32)cc1
(Q) Of a and b , which one carries the higher reported Cmax? Reply with the label of the item you choose.
(A) b

----------
# protocol.details: Rat PK study: concentration of compounds in large intestine tissue and plasma
# Format: in vivo
# measurement.conditions: male, large intestine tissue (distal, colon), 3 mg/kg oral, non-fasted SD rats, 8 hours, read-out: Colon: concentration in large intestine tissue after 8 hours
# Experimental: Test compounds (3 mg/kg/5 mL) prepared by 0.05% methylcellulose were orally administered to non-fasted rats (SD, 8-weeks-old, male, Japan SLC). Blood samples were collected from jugular vein at 0.25, 0.5, 1, 2, 4, 6 and 8 hours after the administration. […] The concentrations of the test compound in large intestine tissue and plasma were measured through a quantitative analysis using liquid chromatography-mass spectrometry (LC/MS). […]
property.measured: concentration at 8 h (ng/g)

compound	units.text	concentration at 8 h
O=C(O)c1ccc(Cn2cnc3nc(-n4cc(C(=O)O)cn4)[nH]c(=O)c32)cc1 [Example 12]	ng/g	67

A: O=C(O)c1cnn(-c2nc3c(ncn3Cc3ccc(O)cc3)c(=O)[nH]2)c1 [Example 29]
B: Cl.O=C(O)c1cnn(-c2nc3ncn(Cc4ccc(OCCN5CCOCC5)cc4)c3c(=O)[nH]2)c1 [Example 75, hydrochloride]
(Q) Just tell me: smaller concentration at 8 h value, A or B ? Answer by stating the label of the chosen item.
(A) B
(B: 323 ng/g, A: 646 ng/g)

----------
# protocol.details: Rat PK study: concentration of compounds in large intestine tissue and plasma
# Type: in vivo
# measurement.conditions: male, large intestine tissue / plasma, 3 mg/kg oral, non-fasted SD rats, 8 hours, read-out: C/P: ratio of Colon and Plasma
Listed molecules paired with reported Kp at 8 h

Solved cases (3 shown):
molecule	Kp at 8 h
COc1ccc(Cn2cnc3c(=O)[nH]c(-n4cc(C(=O)O)cn4)nc32)cc1 [Example 35]	> 11
O=C(O)c1cnn(-c2nc3ncn(Cc4ccc(O)cc4)c3c(=O)[nH]2)c1 [Example 3]	> 87
O=C(O)c1ccc(Cn2cnc3nc(-n4cc(C(=O)O)cn4)[nH]c(=O)c32)cc1 [Example 12]	34

(Q) What measured Kp at 8 h goes with CS(=O)(=O)c1ccc(Cn2cnc3nc(-n4cc(C(=O)O)cn4)[nH]c(=O)c32)cc1 [Example 4] ?
(A) 47

(Q) Item O=C(O)c1cnn(-c2nc3c(ncn3Cc3ccc(O)cc3)c(=O)[nH]2)c1 [Example 29] has what recorded Kp at 8 h?
(A) > 646

(Q) I would be grateful if you could share the reported Kp at 8 h for Cl.O=C(O)c1cnn(-c2nc3ncn(Cc4ccc(OCCN5CCOCC5)cc4)c3c(=O)[nH]2)c1 [Example 75, hydrochloride] .
(A) > 323

(Q) What measured Kp at 8 h goes with O=C(O)c1cnn(-c2nc3ncn(Cc4ccc(-c5ccccc5)cc4)c3c(=O)[nH]2)c1 [Example 1] ?
(A) 36

(Q) What Kp at 8 h value was documented for this molecule, O=C(O)c1cnn(-c2nc3ncn(COCc4ccccc4)c3c(=O)[nH]2)c1 [Example 2] ?
(A) > 188

----------
# Tested on: TNBS induced colitis model rat
# protocol.details: Therapeutic effect in TNBS induced colitis model rat (intestinal permeability of FITC)
# Format: in vivo
# measurement.conditions: po, 72 h, 3 mg/kg orally once a day for 3 days, SD rats, mean, read-out: Inhibition (%): suppressive rate on the intestinal permeability
Each entry below lists one item and its recorded inhibition in vivo at 3 mg/kg value.
Write the value in % as a bare number.

Worked set:
molecule	units.text	inhibition in vivo at 3 mg/kg
O=C(O)c1cnn(-c2nc3ncn(COCc4ccccc4)c3c(=O)[nH]2)c1 [Example 2]	%	51
CS(=O)(=O)c1ccc(Cn2cnc3nc(-n4cc(C(=O)O)cn4)[nH]c(=O)c32)cc1 [Example 4]	%	66
COc1ccc(Cn2cnc3c(=O)[nH]c(-n4cc(C(=O)O)cn4)nc32)cc1 [Example 35]	%	81
COc1ccc(Cn2cnc3nc(-n4cc(C(=O)O)cn4)[nH]c(=O)c32)cc1 [Example 11]	%	83
Cl.O=C(O)c1cnn(-c2nc3ncn(Cc4ccc(OCCN5CCOCC5)cc4)c3c(=O)[nH]2)c1 [Example 75, hydrochloride]	%	80

(Q) I have this molecule here, O=C(O)c1ccc(Cn2cnc3nc(-n4cc(C(=O)O)cn4)[nH]c(=O)c32)cc1 [Example 12] , and I need its recorded inhibition in vivo at 3 mg/kg.
(A) 78

(Q) Requested field: inhibition in vivo at 3 mg/kg. Item: O=C(O)c1cnn(-c2nc3ncn(Cc4ccc(O)cc4)c3c(=O)[nH]2)c1 [Example 3]
(A) 93

(Q) Data request, read-out inhibition in vivo at 3 mg/kg, for O=C(O)c1cnn(-c2nc3c(ncn3Cc3ccc(O)cc3)c(=O)[nH]2)c1 [Example 29]
(A) 86

----------
# protocol.details: Rat PK study: concentration of compounds in large intestine tissue and plasma
# Assay type: in vivo
# measurement.conditions: male, plasma, 3 mg/kg oral, non-fasted SD rats, read-out: AUC: area under the plasma test compound concentration-time curve (converted)
property.measured: AUC (ng·h/mL)

O=C(O)c1ccc(Cn2cnc3nc(-n4cc(C(=O)O)cn4)[nH]c(=O)c32)cc1 49.9

A: CS(=O)(=O)c1ccc(Cn2cnc3nc(-n4cc(C(=O)O)cn4)[nH]c(=O)c32)cc1
B: COc1ccc(Cn2cnc3nc(-n4cc(C(=O)O)cn4)[nH]c(=O)c32)cc1
C: O=C(O)c1cnn(-c2nc3ncn(COCc4ccccc4)c3c(=O)[nH]2)c1
D: O=C(O)c1cnn(-c2nc3ncn(Cc4ccc(-c5ccccc5)cc4)c3c(=O)[nH]2)c1
E: O=C(O)c1cnn(-c2nc3ncn(Cc4ccc(O)cc4)c3c(=O)[nH]2)c1
(Q) Please rank these compounds by AUC in descending order. // list labels; follow requested order
(A) D, A, B, E, C
